The reported measurements were obtained from paper PMC4072508.

# SPOT signal as a fraction of Bim BH3's signal on the same receptor and array per entry
Molecular target: T1, Mcl-1, Q07820
T1 chain: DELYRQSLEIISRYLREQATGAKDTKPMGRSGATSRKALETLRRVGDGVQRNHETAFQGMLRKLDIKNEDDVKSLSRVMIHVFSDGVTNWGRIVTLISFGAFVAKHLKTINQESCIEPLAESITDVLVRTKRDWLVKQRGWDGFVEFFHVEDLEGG
Assay: peptide SPOT array, c-Myc-tagged receptor at 1 uM or 100 nM, anti-c-Myc-Cy3
// response body must contain only the number

Sample answers from the record:
BINDER: AGYELLIQKFDSLYGDQIDMHRKFVV [ISOC1]
NUMERIC RESULT: 0.07
//
BINDER: ELDEDDLEAELDALGDELLADEDSSY [CHMP5]
NUMERIC RESULT: 0.03
//
BINDER: VDFYQPTCIVDQCGADSLGCDRLGCF [HDAC3]
NUMERIC RESULT: 0.01
//
BINDER: MEMYQPSAVVLQCGLDSLSGDRLGCF [HDAC2]
NUMERIC RESULT: 0.04
//
BINDER: HPRRESQVRQDAWIGDGVWVSIRLDS [MAPK8IP3]
NUMERIC RESULT: 0.02

Q. Quick one: SPOT signal as a fraction of Bim BH3's signal on the same receptor and array for VMGSMFAVISLASIAVYFAKRFKRKN [LRRN1] ?
A. 0.13

Q. Same for CALIAGATLHVAWLLDSQVILVQQGQ [PPM1F]
A. 0.01
